Give measured inhibition of growth at 10 µM for each item. Keep answers brief.
Test system: HL-60(TB)
assay overview: Cytotoxicity against human HL-60(TB) cells assessed as growth inhibition at 10 uM after 48 hrs by sulforhodamine B assay
Assay type: functional
experimental setup: read-out: GI
Give bare numbers, in %.

// solved cases for inhibition of growth at 10 µM follow
FC(F)(F)c1ccc(-c2nnc(Nc3ccccc3)s2)cc1 26.2
FC(F)(F)COc1ccc(-c2nnc(Nc3ccccc3)s2)cc1 12.6
O=S(=O)(Oc1ccc(-c2nnc(Nc3ccccc3)s2)cc1)C(F)(F)C(F)(F)C(F)(F)C(F)(F)C(F)(F)C(F)(F)F 29.4

Kindly review the next compound as well.
Reported inhibition of growth at 10 µM for COC(=O)/C=C1\S/C(=N\N=C\c2ccc(C(F)(F)F)cc2)N(c2ccccc2)C1=O : what is it?
16.7
